Hello, the source for this data is the COVID Moonshot data (paper PMC11187573), in case you need it.

Conditions: 20.0 µM
READOUT_LABEL: relative solubility at 20 uM
One number for each entry.

{"columns": ["MOLECULE", "relative solubility at 20 uM"],
 "data": [
  ["Cc1ccncc1NC(=O)Nc1cncc(C#N)c1", 1],
  ["O=C(NC(Cc1ccccc1)C(=O)NCc1ccno1)OCc1ccccc1 (stereo not given)", 0.98],
  ["C=CC(=O)N(C1CCC2(CCCC2)CC1)C(C(=O)NC(C)(C)C)c1cccnc1 (stereo not given)", 1],
  ["NS(=O)(=O)c1ccc(N2CCC([C@@H]3CCCO3)CC2)cc1 (stereo in doubt)", 0.99],
  ["O=C(NCc1cnn2ccccc12)c1cccnc1OCCO", 1]
]}

Report relative solubility at 20 uM for every entry below.
1. CC(NC(=O)c1ccc2cn[nH]c2c1)C(=O)Nc1ccc(-n2cnc3ccccc32)cc1 (stereo not given)
2. C=CC(=O)N(c1ccc(C(C)(C)C)cc1)C(C(=O)NCc1ccccc1)c1cccnc1 (stereo not given)
3. O=C(NCc1cccnn1)Nc1cccc(N2CCC2=O)c1
4. Cc1ccncc1-c1nc(-c2cccc(Cl)c2)no1
5. O=C(NCc1ccc(Cl)cc1CN1CCN(C(=O)CCl)CC1)[C@@H]1CCCOC1 (stereo in doubt)

Result block:
0.7
0.99
1
1
1

====

For each entry below, report its relative solubility at 20 uM value.
Details: 20.0 µM
Answers are plain numbers.

{"columns": ["COMPOUND", "relative solubility at 20 uM"],
 "data": [
  ["N#Cc1ccc(S(=O)(=O)N2CCN(C(=O)c3cc(=O)[nH]c4cc(F)ccc34)CC2)cc1", 0.94],
  ["O=S(=O)(CCc1ccccc1)Nc1cccnc1", 0.98],
  ["CCCNC(=O)C(C)NC(=O)N(C)Cc1csc(C)n1 (stereo not given)", 1],
  ["CCOc1ccccc1OC1CCN(C(=O)c2cc(=O)[nH]c3ccc(F)cc23)C1 (stereo not given)", 1]
]}

Query block: Report relative solubility at 20 uM for `O=C(NCc1cccc(C(=O)N2CCOCC2)c1)c1cnc2c(c1)c(=O)[nH]c(=O)n2Cc1ccccc1` please.
Result block: 0.99

====

For each entry below, report its relative solubility at 20 uM value.
Details: 20.0 µM

For orientation, consider the following solved cases.
{"columns": ["COMPOUND", "relative solubility at 20 uM"],
 "data": [
  ["C=CC(=O)N1CCCC(c2nc3ccccc3s2)C1 (configuration not stated)", 0.99],
  ["O=C(Cc1cncnc1)Nc1cccc(CCCc2ccccc2)c1", 0.96],
  ["CN(Cc1ccc(OCc2cccs2)cc1)C(=O)Cn1nnc2ccccc21", 0.56],
  ["O=C1NC(c2cccnc2)C(=O)N1c1cccc(Cl)c1 (configuration not stated)", 0.85],
  ["O=C(CCl)N1CCN(Cc2cccc(CNC(=O)N3CCOCC3)c2)CC1", 1],
  ["COc1ccc2[nH]cc(CCNS(C)(=O)=O)c2c1", 0.92]
]}

Report relative solubility at 20 uM for every entry below.
1. CCC(CC)C(=O)C(C#N)C(=O)Nc1ccc(F)cc1 (configuration not stated)
2. O=C(Cc1c[nH]c2ncccc12)NCc1ccc(Cl)cn1
3. CCOc1ccccc1/C=C1/C(=O)NC(=O)c2ccccc21
4. Cc1ccncc1NC(=O)CCNc1ccc(S(N)(=O)=O)cc1
5. C=CC(=O)N(c1ccc2ncsc2c1)C(C(=O)NC(C)(C)C)c1cccnc1 (configuration not stated)
6. O=C(Cc1ccc(O)cc1)Nc1cccc2cc[nH]c12

Result block:
1: 1; 2: 1; 3: 0.97; 4: 1; 5: 1; 6: 1
